Listing: Ki of selected molecules
- experimental-system: UniProt O42713
- test-details: Mixed-type inhibition of mushroom tyrosinase-mediated L-tyrosine oxidation assessed as enzyme-inhibitor complex after 10 mins by Lineweaver-Burk plot analysis
Give just the numeric value; µM need not be written.

molecule: Cn1cc[nH]c1=S
Ki / µM: 470

Request: Give its Ki value. Item: `Sc1ncc[nH]1`
Result: 570

###

- experimental-system: Tyrosinase (Agaricus bisporus)
- Sequence (whole entry): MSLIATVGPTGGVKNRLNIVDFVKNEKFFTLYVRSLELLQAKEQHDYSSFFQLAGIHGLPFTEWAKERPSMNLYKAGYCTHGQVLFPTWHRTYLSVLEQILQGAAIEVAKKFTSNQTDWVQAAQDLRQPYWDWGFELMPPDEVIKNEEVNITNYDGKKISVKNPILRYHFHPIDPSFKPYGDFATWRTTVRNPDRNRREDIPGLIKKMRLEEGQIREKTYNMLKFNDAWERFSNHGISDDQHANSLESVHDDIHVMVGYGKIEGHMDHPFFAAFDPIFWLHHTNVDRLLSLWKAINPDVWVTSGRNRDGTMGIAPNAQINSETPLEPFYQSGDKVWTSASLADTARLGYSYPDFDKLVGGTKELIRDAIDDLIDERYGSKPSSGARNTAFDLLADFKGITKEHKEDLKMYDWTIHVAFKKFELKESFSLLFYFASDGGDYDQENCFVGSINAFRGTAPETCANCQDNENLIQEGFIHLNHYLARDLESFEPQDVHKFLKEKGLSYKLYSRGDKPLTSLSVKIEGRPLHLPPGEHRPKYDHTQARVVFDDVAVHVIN
- test-details: Inhibition of mushroom tyrosinase-mediated L-tyrosine hydroxylation after 30 mins by ELISA
Active and inactive are the calls of the source. The rule behind the calls is not given here.
Permitted responses: YES for active, NO for inactive

The examples below pair each entry with its known result.
compound: Sc1ncc[nH]1
category: YES
--
compound: Cn1ccnc1S
category: YES
--
compound: COC(=O)C(N)Cn1ccn(C)c1=S (stereo unspecified)
category: NO
--
compound: Cn1ccn(CC(N)C(=O)O)c1=S (stereo unspecified)
category: NO
--
compound: Cn1ccn(C(=O)OC(C)(C)C)c1=S
category: YES

# evaluate next
Request: Record lookup: outcome of this test for COC(=O)C(Cn1ccn(C)c1=S)NC(=O)OC(C)(C)C (stereo unspecified) ?
Result: NO
